EXPERIMENTAL ENDPOINT: AC50

Given the compound "COc1ccc(NC(=O)c2ccc(-n3cccn3)nc2)c(OC)c1" and test system Cytochrome P450 1A2 (Homo sapiens), the measured AC50 is 2.82 µM (inconclusive)

Sample "COc1cc(NC(=O)c2ccccc2Cl)ccc1NC(=O)c1ccco1" , system: Cytochrome P450 1A2 (Homo sapiens). Its AC50 is 17.8 µM (inconclusive)

Recorded AC50 for "O=C(Nc1cccc(F)c1)N1CC[C@@]2(CCCN(C(=O)c3ccco3)C2)C1" on Cytochrome P450 1A2 (Homo sapiens) was 25.1 µM (inconclusive)

Reported Cytochrome P450 1A2 (Homo sapiens) AC50 for item "C/C(=C\c1ccc(C(=O)O)cc1)c1ccc2c(c1)C(C)(C)CCC2(C)C" was 31.6 µM (inconclusive)

"O=C(Nc1ccccc1)N1CCCC2(CCN(S(=O)(=O)c3ccccc3)CC2)C1" on Cytochrome P450 1A2 (Homo sapiens) gives AC50 = 15.8 µM (inconclusive)

---

Please provide measured EC50 for the entries that follow.
# TESTED SYSTEM: Short transient receptor potential channel 4 (Mus musculus, UniProt Q9QUQ5)
# Sequence (Q9QUQ5 whole entry): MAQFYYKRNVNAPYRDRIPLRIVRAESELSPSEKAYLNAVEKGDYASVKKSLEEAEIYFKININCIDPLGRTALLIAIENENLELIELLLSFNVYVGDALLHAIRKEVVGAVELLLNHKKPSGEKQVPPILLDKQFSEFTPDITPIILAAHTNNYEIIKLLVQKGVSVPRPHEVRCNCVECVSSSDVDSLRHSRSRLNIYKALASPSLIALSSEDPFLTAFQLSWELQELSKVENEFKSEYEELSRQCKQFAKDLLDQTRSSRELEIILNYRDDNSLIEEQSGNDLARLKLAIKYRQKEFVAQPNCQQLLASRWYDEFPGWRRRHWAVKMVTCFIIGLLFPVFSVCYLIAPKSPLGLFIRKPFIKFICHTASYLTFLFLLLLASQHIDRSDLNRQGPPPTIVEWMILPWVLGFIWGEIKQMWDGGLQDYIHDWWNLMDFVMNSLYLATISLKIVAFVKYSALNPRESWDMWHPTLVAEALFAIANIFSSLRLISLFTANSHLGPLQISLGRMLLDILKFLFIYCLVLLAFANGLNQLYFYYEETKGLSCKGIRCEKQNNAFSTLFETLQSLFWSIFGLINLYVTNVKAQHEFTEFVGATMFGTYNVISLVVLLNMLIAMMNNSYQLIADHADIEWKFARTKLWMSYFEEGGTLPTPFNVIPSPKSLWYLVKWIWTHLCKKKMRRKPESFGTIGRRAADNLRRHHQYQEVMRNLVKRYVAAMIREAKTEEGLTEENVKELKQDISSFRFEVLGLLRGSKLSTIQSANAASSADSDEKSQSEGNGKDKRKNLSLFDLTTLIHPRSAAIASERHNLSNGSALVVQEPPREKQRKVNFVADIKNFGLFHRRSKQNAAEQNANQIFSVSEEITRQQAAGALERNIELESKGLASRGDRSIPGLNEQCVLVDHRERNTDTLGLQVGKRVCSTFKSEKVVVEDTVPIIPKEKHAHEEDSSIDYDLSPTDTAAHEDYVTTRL
# MEASUREMENT DESCRIPTION: mouse TRPC4 channel inhibitors, dose response, cell-based, HEK293 TRPC4/mu-opioid, Fluo-4 calcium (AID 434942);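 also: potency of inhibitors blocking the TRPC4 calcium response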
# Type: functional
Active and inactive are the calls of the source.

Observed EC50, Short transient receptor potential channel 4 (Mus musculus, UniProt Q9QUQ5), "COc1cc(CNC2CCCC2)c(Br)cc1OC1CCCC1" : 37.3 nM (active)

Note to self: EC50 of "Cc1ccc(Nc2cc(C)nc3ccc(C)cc23)cc1" with Short transient receptor potential channel 4 (Mus musculus, UniProt Q9QUQ5) was 1500 nM (active)

Log: Short transient receptor potential channel 4 (Mus musculus, UniProt Q9QUQ5), compound "N=c1sccn1CC(=O)Nc1ccccc1Oc1ccccc1" , EC50 = 5960 nM (active)

Short answer on Short transient receptor potential channel 4 (Mus musculus, UniProt Q9QUQ5) for Cc1ccc2cc(CN(CCCN3CCOCC3)C(c3nnnn3Cc3ccco3)C(C)C)c(O)nc2c1C (centres undefined) , EC50: 473 nM (active)

---

# TESTED SYSTEM: Kappa-type opioid receptor (Homo sapiens)
# Sequence (P41145 whole entry): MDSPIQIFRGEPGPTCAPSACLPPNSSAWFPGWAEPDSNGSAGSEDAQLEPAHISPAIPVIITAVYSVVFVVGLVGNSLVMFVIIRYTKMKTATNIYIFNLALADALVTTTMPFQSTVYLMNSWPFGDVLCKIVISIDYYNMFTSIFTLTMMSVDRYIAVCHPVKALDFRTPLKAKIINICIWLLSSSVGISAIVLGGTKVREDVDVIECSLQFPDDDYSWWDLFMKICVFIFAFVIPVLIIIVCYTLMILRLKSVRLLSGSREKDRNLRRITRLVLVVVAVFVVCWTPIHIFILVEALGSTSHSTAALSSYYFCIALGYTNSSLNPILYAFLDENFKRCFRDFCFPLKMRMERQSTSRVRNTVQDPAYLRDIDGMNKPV
# Assay type: functional
EXPERIMENTAL ENDPOINT: pIC50
Remember the convention: pIC50 equals -log10 of concentration in molar.

Summary for this molecule, COc1ccc(C[S+]([O-])/C(Cl)=C(/Cl)C(=O)Nc2ccc(OC)nc2)cc1 (stereo unspecified) : pIC50 is 5.08

---

# TESTED SYSTEM: Leucine aminopeptidase (Plasmodium falciparum 3D7, UniProt Q8IL11)
# Sequence (Q8IL11 whole entry): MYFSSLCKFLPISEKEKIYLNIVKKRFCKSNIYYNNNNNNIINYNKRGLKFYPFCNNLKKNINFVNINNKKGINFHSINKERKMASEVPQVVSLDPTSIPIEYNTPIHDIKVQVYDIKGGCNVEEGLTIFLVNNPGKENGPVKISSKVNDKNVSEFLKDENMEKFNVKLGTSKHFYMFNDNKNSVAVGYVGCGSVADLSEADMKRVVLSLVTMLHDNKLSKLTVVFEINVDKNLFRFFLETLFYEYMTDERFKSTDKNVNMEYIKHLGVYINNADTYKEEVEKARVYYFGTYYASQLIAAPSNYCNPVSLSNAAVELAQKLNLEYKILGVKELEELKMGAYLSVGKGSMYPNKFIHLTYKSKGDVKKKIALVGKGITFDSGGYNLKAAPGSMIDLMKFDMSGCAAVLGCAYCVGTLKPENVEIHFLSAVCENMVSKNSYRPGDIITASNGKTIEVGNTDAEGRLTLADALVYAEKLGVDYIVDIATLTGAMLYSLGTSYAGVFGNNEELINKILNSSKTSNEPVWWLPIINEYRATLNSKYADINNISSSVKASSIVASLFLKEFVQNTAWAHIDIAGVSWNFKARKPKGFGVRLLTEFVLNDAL
# MEASUREMENT DESCRIPTION: P. falciparum M17LAP inhibitors, primary screen, biochemical, fluorogenic H-Leu-NHMec substrate, 1536-well (AID 1619)
# Assay type: functional
Activity calls are given as the source filed them.
EXPERIMENTAL ENDPOINT: IC50

molecule "Cc1cccc(NC(=O)CSc2nc(O)c(C#N)c(-c3ccccc3)n2)c1C" , IC50 observed: 5.37 µM (active)

So, "O=C(O)c1cccc(NC(=S)N/N=C/c2ccccc2OCc2ccc(Br)cc2)c1" ? Its IC50 was 13.3 µM (active)

Noted for COc1cccc(/C=N/NC(=O)CC2C(=O)NN=C2C)c1OC (stereo not given) : its IC50 reads 23.5 µM (active)

Lab note: measured IC50 of "CC(/C=N/NC(=O)Cc1cc(O)[nH]n1)=C\c1ccccc1" was 72.4 µM (active)

Measured IC50, "COc1ccc(NC(=O)CSc2nnc(NC(=O)c3ccccc3C(=O)O)s2)cc1" : 6.27 µM (active)

---

# TESTED SYSTEM: Rac GTPase-activating protein 1 (Homo sapiens)
# Sequence (Q9H0H5 whole entry): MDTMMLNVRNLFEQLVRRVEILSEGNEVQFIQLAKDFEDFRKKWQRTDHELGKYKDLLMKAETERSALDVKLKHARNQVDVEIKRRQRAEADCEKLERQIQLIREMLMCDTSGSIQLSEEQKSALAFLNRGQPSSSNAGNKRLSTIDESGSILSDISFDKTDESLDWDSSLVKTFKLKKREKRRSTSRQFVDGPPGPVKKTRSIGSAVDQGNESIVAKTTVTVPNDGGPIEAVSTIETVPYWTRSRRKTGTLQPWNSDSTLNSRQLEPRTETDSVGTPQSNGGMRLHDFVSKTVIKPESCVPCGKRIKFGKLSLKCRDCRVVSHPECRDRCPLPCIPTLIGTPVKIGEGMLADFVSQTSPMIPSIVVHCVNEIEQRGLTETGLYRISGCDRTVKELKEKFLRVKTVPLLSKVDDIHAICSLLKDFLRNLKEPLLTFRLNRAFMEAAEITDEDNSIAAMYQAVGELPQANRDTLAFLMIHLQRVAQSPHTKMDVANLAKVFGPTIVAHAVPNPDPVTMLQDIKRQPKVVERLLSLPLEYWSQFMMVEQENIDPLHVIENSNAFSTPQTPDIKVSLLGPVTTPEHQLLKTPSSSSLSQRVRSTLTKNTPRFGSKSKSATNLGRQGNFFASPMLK
# MEASUREMENT DESCRIPTION: MgcRacGAP GTPase-activating activity inhibitors, confirmation, biochemical, ADP Hunter fluorescence, primary and confirmatory (AID 624330)
# Type: functional
Active and inactive are the calls of the source.
EXPERIMENTAL ENDPOINT: IC50

IC50 of "CCOc1ccc(CN2CCN(Cc3c[nH]c4ccccc34)CC2)cc1" , assay on Rac GTPase-activating protein 1 (Homo sapiens), is 93 µM (active)

GET /values?item= "Nc1ccc(N=Nc2ccc(O)cc2)c(N)n1" &system= Rac GTPase-activating protein 1 (Homo sapiens) returns IC50: 8.44 µM (active)

"Cc1ccc(NC(=O)CN(C)C2CCCCC2)cc1Br" on Rac GTPase-activating protein 1 (Homo sapiens) gives IC50 = 137 µM (active)

Tested system Rac GTPase-activating protein 1 (Homo sapiens); IC50 recorded for "CC(=O)Nc1cccc(NC(=O)c2cccc(-c3ccc(O)cc3)c2)c1" was 46.4 µM (active)

Tested system Rac GTPase-activating protein 1 (Homo sapiens); IC50 recorded for CCOC(=O)c1c(-c2ccccc2)csc1NC(=O)C(C)NCCCN1CCOCC1 (configuration not stated) was 86.1 µM (active)

GET /values?item= "Cc1cc(=O)c2c(O)c(O)ccc2o1" &system= Rac GTPase-activating protein 1 (Homo sapiens) returns IC50: 32.2 µM (active)

Item "CS(=O)(=O)Cc1nc2ccccc2oc1=O" ; assay system Rac GTPase-activating protein 1 (Homo sapiens); IC50 reported as 73.6 µM (active)

Kindly note: Rac GTPase-activating protein 1 (Homo sapiens), "COc1cc(C=C2C(=O)NC(=O)NC2=O)ccc1OCc1ccc([N+](=O)[O-])cc1" , IC50 value reported: 158 µM (active)

Entry CC1OC(CC(=O)O)CC2=C1C(=O)c1c(O)cccc1C2=O (configuration not stated) under Rac GTPase-activating protein 1 (Homo sapiens) had IC50 of 76.4 µM (active)

I looked up "COCCn1c(=S)[nH]c2sc3c(c2c1=O)CCCC3" and its IC50 for Rac GTPase-activating protein 1 (Homo sapiens) was 38.7 µM (active)

Given the compound CC(=O)N1CCN(CC(O)COc2ccc(Br)cc2)CC1 (configuration not stated) and test system Rac GTPase-activating protein 1 (Homo sapiens), the measured IC50 is 159 µM (active)

# IC50 measured on Rac GTPase-activating protein 1 (Homo sapiens) for item "CCCCOc1ccc(NC(=O)CN2CCN(CC)CC2)cc1" = 71.7 µM (active)

---

# TESTED SYSTEM: Fatty acid synthase (Homo sapiens, UniProt P49327)
# Sequence (P49327 whole entry, the tested form may be a part): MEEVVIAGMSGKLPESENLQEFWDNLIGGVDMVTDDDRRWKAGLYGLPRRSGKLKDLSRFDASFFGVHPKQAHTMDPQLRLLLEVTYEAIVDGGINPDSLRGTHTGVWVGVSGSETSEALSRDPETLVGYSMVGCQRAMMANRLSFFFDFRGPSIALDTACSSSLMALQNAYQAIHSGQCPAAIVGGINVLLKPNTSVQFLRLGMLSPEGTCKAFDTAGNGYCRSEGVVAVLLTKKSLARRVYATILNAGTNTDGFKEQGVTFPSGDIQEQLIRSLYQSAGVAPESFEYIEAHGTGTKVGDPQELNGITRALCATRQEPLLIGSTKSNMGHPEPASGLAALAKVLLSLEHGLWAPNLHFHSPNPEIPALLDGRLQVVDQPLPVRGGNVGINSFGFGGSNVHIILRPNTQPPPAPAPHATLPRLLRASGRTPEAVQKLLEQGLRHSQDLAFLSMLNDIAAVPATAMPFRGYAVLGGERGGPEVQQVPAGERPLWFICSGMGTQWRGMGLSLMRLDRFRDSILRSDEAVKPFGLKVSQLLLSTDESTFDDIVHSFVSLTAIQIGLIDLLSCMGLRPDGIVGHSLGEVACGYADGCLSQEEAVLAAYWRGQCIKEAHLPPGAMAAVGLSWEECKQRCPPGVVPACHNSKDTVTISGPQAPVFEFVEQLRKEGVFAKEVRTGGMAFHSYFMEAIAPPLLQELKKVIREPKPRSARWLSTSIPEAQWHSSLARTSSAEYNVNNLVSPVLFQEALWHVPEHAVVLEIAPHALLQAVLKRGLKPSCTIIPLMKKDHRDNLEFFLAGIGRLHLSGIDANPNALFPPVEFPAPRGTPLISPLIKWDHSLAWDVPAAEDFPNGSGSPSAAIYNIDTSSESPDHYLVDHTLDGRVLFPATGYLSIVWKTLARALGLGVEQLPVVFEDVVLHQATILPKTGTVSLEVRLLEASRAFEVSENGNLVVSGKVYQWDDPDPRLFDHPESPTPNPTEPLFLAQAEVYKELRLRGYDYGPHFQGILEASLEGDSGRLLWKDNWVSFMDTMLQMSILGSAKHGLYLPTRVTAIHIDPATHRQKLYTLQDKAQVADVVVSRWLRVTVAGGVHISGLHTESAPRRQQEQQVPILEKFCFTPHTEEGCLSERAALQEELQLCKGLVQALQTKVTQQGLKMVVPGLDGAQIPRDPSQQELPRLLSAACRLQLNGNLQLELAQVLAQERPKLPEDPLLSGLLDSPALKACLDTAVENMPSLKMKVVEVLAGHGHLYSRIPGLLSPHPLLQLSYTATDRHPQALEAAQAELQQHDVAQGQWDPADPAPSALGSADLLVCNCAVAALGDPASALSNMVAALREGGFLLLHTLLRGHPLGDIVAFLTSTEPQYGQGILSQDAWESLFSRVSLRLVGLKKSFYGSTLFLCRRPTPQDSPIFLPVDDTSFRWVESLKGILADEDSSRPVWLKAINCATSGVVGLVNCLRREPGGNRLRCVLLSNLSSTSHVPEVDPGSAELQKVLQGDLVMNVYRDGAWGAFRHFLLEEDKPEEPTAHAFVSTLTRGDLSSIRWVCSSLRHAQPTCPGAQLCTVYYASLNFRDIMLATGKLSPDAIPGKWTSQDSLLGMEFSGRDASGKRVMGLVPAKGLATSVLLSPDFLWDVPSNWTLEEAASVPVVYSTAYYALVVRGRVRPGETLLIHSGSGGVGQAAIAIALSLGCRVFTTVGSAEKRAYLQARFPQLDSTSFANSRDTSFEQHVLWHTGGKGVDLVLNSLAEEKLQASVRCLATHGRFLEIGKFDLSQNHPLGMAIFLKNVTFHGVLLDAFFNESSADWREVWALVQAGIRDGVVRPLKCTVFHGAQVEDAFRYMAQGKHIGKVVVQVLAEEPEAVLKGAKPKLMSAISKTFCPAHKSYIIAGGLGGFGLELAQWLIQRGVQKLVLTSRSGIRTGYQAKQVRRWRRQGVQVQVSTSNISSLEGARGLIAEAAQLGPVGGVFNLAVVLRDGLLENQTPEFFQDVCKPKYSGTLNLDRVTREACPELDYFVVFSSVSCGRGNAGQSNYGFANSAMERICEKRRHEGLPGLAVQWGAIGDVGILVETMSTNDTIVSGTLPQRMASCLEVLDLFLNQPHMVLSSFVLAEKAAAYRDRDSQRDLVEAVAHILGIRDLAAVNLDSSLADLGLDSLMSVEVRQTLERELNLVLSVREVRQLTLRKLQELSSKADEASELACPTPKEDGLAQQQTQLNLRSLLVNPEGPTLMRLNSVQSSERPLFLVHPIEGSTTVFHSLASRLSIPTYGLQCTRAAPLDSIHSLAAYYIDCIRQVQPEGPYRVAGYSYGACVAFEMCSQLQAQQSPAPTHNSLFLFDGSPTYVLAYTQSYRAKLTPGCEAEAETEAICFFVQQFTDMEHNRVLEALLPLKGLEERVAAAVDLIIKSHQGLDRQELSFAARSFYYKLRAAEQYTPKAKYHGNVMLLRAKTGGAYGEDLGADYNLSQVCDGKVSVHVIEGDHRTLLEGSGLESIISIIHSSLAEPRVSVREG
# MEASUREMENT DESCRIPTION: FAS thioesterase domain inhibitors, dose response, biochemical, endpoint fluorescence intensity, uHTS hits (AID 624327);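 also: fluorescence from hydrolysis of an O-methyl fluorescein acyl ester substrate by the enzyme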
# Format: functional
The source made the active and inactive calls.
Provide the reported IC50 of each item.

Lab note: measured IC50 of "COc1ccc(OC)c(S(=O)(=O)ON2C(=O)c3ccccc3C2=O)c1" was 3.72 µM (active)

response.value for "C=CCn1c(=S)[nH]c2cc(C(=O)N3CCN(c4ccccc4OC)CC3)ccc2c1=O" (field: IC50) = 17.6 µM (active)

The compound listed as "O=C(CN1C(=O)NC2(CCCCCC2)C1=O)Nc1ccc(Cl)c([N+](=O)[O-])c1" has a reported IC50 of 8.92 µM (active)

// recorded IC50 for "CCS(=O)(=O)c1ccc(-c2csc(-c3ccccc3)n2)c(Cl)c1Cl" : 1.21 µM (active)

What the record says about "COc1ccccc1/C=C(\NC(=O)c1ccc(OC)c(OC)c1)C(=O)Nc1cccc([N+](=O)[O-])c1" : IC50 is 11.9 µM (active)

IC50 reading for "CCCC12CN(C(=O)c3ccc([N+](=O)[O-])cc3)CC(C)(CN(C(=O)c3ccc([N+](=O)[O-])cc3)C1)C2=O" : 9.85 µM (active)

Record COc1ccc([N+](=O)[O-])cc1NC(=O)C(C)NNC(=O)c1cccc([N+](=O)[O-])c1 (stereo not drawn) . Reported IC50: 12.7 µM (active)

Query "N#C/C(=C\c1c(N2CCC(C(N)=O)CC2)nc2ccccn2c1=O)S(=O)(=O)c1ccc(Cl)cc1" yields IC50 of 17.1 µM (active)
